Exercise: for every item that follows, state its recorded pIC50.
Assay: Inhibition of Ixodes ricinus AE expressed in Pichia pastoris after 20 mins
Give bare numbers, as −log10 of the molar value.

Give pIC50 for all molecules that follow.
1. C[C@H](NC(=O)OCc1ccccc1)C(=O)N[C@@H](C)C(=O)NN(CC(N)=O)C(=O)/C=C/C(=O)N1Cc2ccccc2C1
2. C[C@H](NC(=O)OCc1ccccc1)C(=O)N[C@@H](C)C(=O)NN(CC(N)=O)C(=O)/C=C/C(=O)N(C)Cc1cccc2ccccc12
3. C[C@H](NC(=O)OCc1ccccc1)C(=O)N[C@@H](C)C(=O)NN(CC(N)=O)C(=O)/C=C/C(=O)N(Cc1ccccc1)Cc1ccc(F)cc1

## Output
[8.35, 8.26, 6.15]
